- System under test: Hsp90β (Homo sapiens)
- Sequence (P08238 whole entry): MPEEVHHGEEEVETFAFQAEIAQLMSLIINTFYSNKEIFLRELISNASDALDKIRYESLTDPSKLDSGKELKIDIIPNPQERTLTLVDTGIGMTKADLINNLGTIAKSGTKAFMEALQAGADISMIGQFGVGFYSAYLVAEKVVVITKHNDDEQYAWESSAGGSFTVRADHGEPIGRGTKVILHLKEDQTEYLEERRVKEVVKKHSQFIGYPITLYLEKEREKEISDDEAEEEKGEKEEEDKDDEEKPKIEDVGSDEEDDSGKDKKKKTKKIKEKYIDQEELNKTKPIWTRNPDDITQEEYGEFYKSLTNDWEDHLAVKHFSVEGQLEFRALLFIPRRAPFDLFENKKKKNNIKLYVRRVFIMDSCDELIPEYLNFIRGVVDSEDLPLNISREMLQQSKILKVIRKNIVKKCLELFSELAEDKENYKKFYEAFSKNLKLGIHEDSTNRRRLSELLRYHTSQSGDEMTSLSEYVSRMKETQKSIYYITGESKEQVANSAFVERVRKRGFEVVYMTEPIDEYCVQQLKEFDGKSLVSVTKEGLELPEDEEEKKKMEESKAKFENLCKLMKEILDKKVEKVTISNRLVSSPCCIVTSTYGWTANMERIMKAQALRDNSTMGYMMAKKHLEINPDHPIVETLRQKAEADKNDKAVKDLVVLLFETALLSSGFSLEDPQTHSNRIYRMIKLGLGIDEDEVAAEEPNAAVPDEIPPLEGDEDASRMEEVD
- Protocol description: Hsp90 FP saturation binding assay of FP probes
- Cond: saturation binding of FP probe; read-out: apparent Kd
Quantity kind: Kd (nM)
Please reply with the bare figure in nM and do not write the unit itself.

## Input Request the reported Kd associated with `C[C@@H](NCCCn1c(Sc2cc(Cl)cc(Cl)c2)nc2c(N)ncnc21)C1CC1`
## Output 2.8

---

- System under test: Hsp90α (Homo sapiens, UniProt P07900)
- Cond: read-out: binding affinity (FP competition); probe 115a
Quantity kind: pIC50
Units for pIC50: none; it is -log10 of a concentration expressed in mol/L.

## Input Request the reported pIC50 associated with `Nc1ncnc2c1ncn2[C@@H]1O[C@H](COP(=O)(O)OP(=O)(O)O)[C@@H](O)[C@H]1O`
## Output 4.23
